Provide the recorded melting point for the entries that follow.

# count of solved cases: 5
>  <COMPOUND>
Cc1cnc(C(C)NC(=O)c2cc(C(F)(F)F)cc(C(F)(F)F)c2)c(-n2ccnn2)n1 (stereo not drawn) [Compound P43]

>  <DATA_VALUE>
167 to 171 °C

$$$$
>  <COMPOUND>
Cc1cc(F)cc(C(=O)NC(C)c2nccnc2-n2nccn2)c1 (stereo not drawn) [Compound P37]

>  <DATA_VALUE>
154 to 155 °C

$$$$
>  <COMPOUND>
CCOc1cc(C(=O)NC(C)c2nccnc2-n2nccn2)cc(Cl)n1 (stereo not drawn) [Compound P21]

>  <DATA_VALUE>
129 to 130 °C

$$$$
>  <COMPOUND>
COc1cc(C)cc(C(=O)NC(C)c2nccnc2-n2nccn2)c1 (stereo not drawn) [Compound P27]

>  <DATA_VALUE>
128 to 129 °C

$$$$
>  <COMPOUND>
CCc1cc(C(=O)NC(C)c2nccnc2-n2nccn2)cc(Cl)n1 (stereo not drawn) [Compound P31]

>  <DATA_VALUE>
126 to 129 °C

$$$$

Query: // returns reported melting point for input CCCc1cc(C(=O)NC(C)c2nccnc2-n2nccn2)cc(Cl)n1 (stereo not drawn) [Compound P34]
Result: 142 to 145 °C

###

Tested on: Spodoptera littoralis (Egyptian Cotton Leaf Worm)
PROTOCOL_SUMMARY: Example B6: Spodoptera littoralis, spray on cotton leaf discs
Type: in vivo
ASSAY_CONDITIONS: foliar, 72 h, application rate of 200 ppm, L1 larvae, 3 days after infestation, read-out: control in at least one of the three categories (mortality, anti-feedant effect, or growth inhibition)
METRIC: percent control (mortality, anti-feedant effect or growth inhibition) at 200 ppm

# count of solved cases: 3
>  <COMPOUND>
CC(NC(=O)c1cc(Cl)cc(Cl)c1)c1nccnc1-n1nccn1 (stereo not shown) [Compound P20]

>  <TARGET>
Spodoptera littoralis (Egyptian Cotton Leaf Worm)

>  <DATA_VALUE>
≥ 80%

$$$$
>  <COMPOUND>
CC(NC(=O)c1cc(Cl)cc(C(F)(F)F)c1)c1nccnc1-n1nccn1 (stereo not shown) [Compound P4]

>  <TARGET>
Spodoptera littoralis (Egyptian Cotton Leaf Worm)

>  <DATA_VALUE>
≥ 80%

$$$$
>  <COMPOUND>
CC(NC(=O)c1cc(C(F)(F)F)cc(C(F)(F)F)c1)c1nccnc1-n1cncn1 (stereo not shown) [Compound P46]

>  <TARGET>
Spodoptera littoralis (Egyptian Cotton Leaf Worm)

>  <DATA_VALUE>
≥ 80%

$$$$

Now look at this entry.
Query: // returns reported percent control (mortality, anti-feedant effect or growth inhibition) at 200 ppm for input CC(NC(=O)c1cc(C(F)(F)F)cc(C(F)(F)F)c1)c1nccnc1-n1ccnn1 (stereo not shown) [Compound P44]
Result: ≥ 80%
